# TARGET: mitochondrial calcium uniporter (MCU) (Homo sapiens, UniProt Q8NE86)
# Sequence (Q8NE86 51-351): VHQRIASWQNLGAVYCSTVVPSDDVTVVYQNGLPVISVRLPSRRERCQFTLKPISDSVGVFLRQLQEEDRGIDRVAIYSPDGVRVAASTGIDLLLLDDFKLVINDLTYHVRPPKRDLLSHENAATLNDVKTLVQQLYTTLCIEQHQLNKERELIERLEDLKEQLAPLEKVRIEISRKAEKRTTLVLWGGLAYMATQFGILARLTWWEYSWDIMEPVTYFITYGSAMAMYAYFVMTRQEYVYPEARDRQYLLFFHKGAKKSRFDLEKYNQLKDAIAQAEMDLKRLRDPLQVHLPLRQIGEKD
# Sequence (Q9H4I9 48-107 partner limits assumed): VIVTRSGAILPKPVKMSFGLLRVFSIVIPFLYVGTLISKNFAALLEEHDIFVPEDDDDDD
# TEST_METHOD_NOTES: Mitochondrial Ca2+ uptake inhibition in digitonin-permeabilized HEK293T cells
# Type: cell-based
READOUT_KIND: pIC50
Lab note — pIC50 values are minus log10 of concentrations in M.

Entry CCCC(=O)[O-].CCCC(=O)[O-].N.N.N.N.N.N.N.N.[N-3].[Ru+4].[Ru+4] [Complex 4] has what pIC50?
7.73

* * *

# TEST_METHOD_NOTES: Aquation kinetics of axial ligand dissociation by 1H NMR spectroscopy
# Type: physicochemical
# STATED_CONDITIONS: 37 °C, pH 7.4 MOPS-buffered solution, 400 μM complex, 1H NMR
READOUT_KIND: k1 × 10^5 (first aquation rate constant) (s^−1)
Use s^−1 as the unit, but write only the number.

Entry "N.N.N.N.N.N.N.N.O=C[O-].O=C[O-].[N-3].[Ru+4].[Ru+4]" has what k1 × 10^5 (first aquation rate constant)?
5.9

Entry "CC(=O)[O-].CC(=O)[O-].N.N.N.N.N.N.N.N.[N-3].[Ru+4].[Ru+4]" has what k1 × 10^5 (first aquation rate constant)?
2.0

Entry "CCC(=O)[O-].CCC(=O)[O-].N.N.N.N.N.N.N.N.[N-3].[Ru+4].[Ru+4]" has what k1 × 10^5 (first aquation rate constant)?
2.8

Entry "CCCC(=O)[O-].CCCC(=O)[O-].N.N.N.N.N.N.N.N.[N-3].[Ru+4].[Ru+4]" has what k1 × 10^5 (first aquation rate constant)?
3.2

* * *

What half-life was measured for each of the following?
# TEST_METHOD_NOTES: Aquation kinetics of axial ligand dissociation by 1H NMR spectroscopy
# Type: physicochemical
# STATED_CONDITIONS: mops buffer, pH 7.4
Use h as the unit, but write only the number.

Entry CCC(=O)[O-].CCC(=O)[O-].N.N.N.N.N.N.N.N.[N-3].[Ru+4].[Ru+4] [Complex 3] has what half-life?
6.9

Entry N.N.N.N.N.N.N.N.O=C[O-].O=C[O-].[N-3].[Ru+4].[Ru+4] [Complex 1] has what half-life?
3.3

Entry CC(=O)[O-].CC(=O)[O-].N.N.N.N.N.N.N.N.[N-3].[Ru+4].[Ru+4] [Complex 2] has what half-life?
9.9

Entry CCCC(=O)[O-].CCCC(=O)[O-].N.N.N.N.N.N.N.N.[N-3].[Ru+4].[Ru+4] [Complex 4] has what half-life?
5.9

* * *

# TEST_METHOD_NOTES: Aquation kinetics of axial ligand dissociation by 1H NMR spectroscopy
# Format: physicochemical
# STATED_CONDITIONS: 37 °C, pH 7.4 MOPS-buffered solution, 400 μM complex, 1H NMR
READOUT_KIND: k2 × 10^4 (second aquation rate constant) (s^−1)
Use s^−1 as the unit, but write only the number.

Entry "CCC(=O)[O-].CCC(=O)[O-].N.N.N.N.N.N.N.N.[N-3].[Ru+4].[Ru+4]" has what k2 × 10^4 (second aquation rate constant)?
3.3

Entry "CC(=O)[O-].CC(=O)[O-].N.N.N.N.N.N.N.N.[N-3].[Ru+4].[Ru+4]" has what k2 × 10^4 (second aquation rate constant)?
3.0

Entry "CCCC(=O)[O-].CCCC(=O)[O-].N.N.N.N.N.N.N.N.[N-3].[Ru+4].[Ru+4]" has what k2 × 10^4 (second aquation rate constant)?
2.8

Entry "N.N.N.N.N.N.N.N.O=C[O-].O=C[O-].[N-3].[Ru+4].[Ru+4]" has what k2 × 10^4 (second aquation rate constant)?
3.6

Measured values drawn from paper PMC11649380 for this set.
